# pIC50 against BTK (Homo sapiens, UniProt Q06187), merged from multiple literature sources
# Sequence (Q06187 whole entry): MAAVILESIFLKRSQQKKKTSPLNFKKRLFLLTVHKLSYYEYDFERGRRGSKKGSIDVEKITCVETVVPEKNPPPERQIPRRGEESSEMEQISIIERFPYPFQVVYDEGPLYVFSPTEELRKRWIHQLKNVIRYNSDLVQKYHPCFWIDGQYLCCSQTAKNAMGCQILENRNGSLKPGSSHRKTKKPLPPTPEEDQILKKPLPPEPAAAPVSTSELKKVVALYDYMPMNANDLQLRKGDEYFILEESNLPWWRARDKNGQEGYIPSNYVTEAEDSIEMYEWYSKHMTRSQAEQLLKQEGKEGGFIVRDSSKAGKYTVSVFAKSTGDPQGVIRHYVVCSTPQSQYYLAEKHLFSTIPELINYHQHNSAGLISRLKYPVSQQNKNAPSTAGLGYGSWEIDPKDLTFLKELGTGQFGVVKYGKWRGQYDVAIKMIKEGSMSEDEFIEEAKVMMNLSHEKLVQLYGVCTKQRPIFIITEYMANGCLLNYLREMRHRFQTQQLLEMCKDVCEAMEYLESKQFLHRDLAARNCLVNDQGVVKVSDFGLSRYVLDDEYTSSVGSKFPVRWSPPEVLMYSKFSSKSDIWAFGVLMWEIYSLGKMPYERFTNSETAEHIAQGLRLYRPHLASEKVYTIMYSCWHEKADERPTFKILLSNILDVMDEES
pIC50: −log10 of the molar value.
Quantity kind: pIC50

Compound	Quantity kind	Result operator	Data value
CN1CCC2(C1)Nc1c(cnc3[nH]cc(C(=O)c4ccc(Oc5ccccc5)cc4F)c13)NC2=O (stereo not shown)	pIC50	=	7.56
COCCOc1ccc(Nc2ncc(F)c(Nc3cccc(NC(=O)c4c(F)c(F)c(F)c(F)c4[S@+](C)[O-])c3)n2)cc1 (racemic)	pIC50	>	6.00
COCC1(C)Nc2c(cnc3[nH]cc(C(=O)c4ccc(Oc5ccccc5)cc4Cl)c23)N(C)C1=O (single isomer, unassigned)	pIC50	=	7.62
C=C(F)C(=O)N1CCC[C@H]1C#Cc1c(N)ncnc1-c1cc(F)cc(-n2ccc3cc(C4CC4)cc(F)c3c2=O)c1C	pIC50	=	6.70
C=CC(=O)N[C@H]1CCCN(c2nc(-c3ccc(Oc4ccccc4)cc3)c(C(N)=O)c3[nH]c(=O)[nH]c23)C1	pIC50	≥	8.00
CN1C(=O)C2(CCOCC2)Nc2c1cnc1[nH]cc(C(=O)c3ccc(Oc4ccccc4)cc3Cl)c21	pIC50	=	7.57
O=C(c1ccc(Oc2ccccc2)cc1Cl)c1c[nH]c2nccc(N[C@H]3CC[C@H](C(=O)O)CC3)c12	pIC50	=	8.05

----------
// cross-study collection: IC50 for BTK (Homo sapiens, UniProt Q06187)

Smiles code	Target or test system	Result operator	IC50 [nM]
Nc1nccc2c1n(-c1ccc(Oc3ccccc3)c(Cl)c1)c(=O)n2[C@@H]1CCCN(C(=O)/C=C/CF)C1	BTK (Homo sapiens, UniProt Q06187)	=	1.57
COC[C@]1(C)Nc2c(cnc3[nH]cc(C(=O)c4ccc(Oc5cc(C)cc(C)n5)cc4F)c23)NC1=O	BTK (Homo sapiens, UniProt Q06187)	=	50.4
COC[C@]1(C)Nc2c(cnc3[nH]cc(C(=O)c4ccc(OC)cc4Cl)c23)NC1=O	BTK (Homo sapiens, UniProt Q06187)	=	61.8
CC#CC(=O)N[C@H]1CCCN(c2nc(-c3ccc(Oc4ccccc4)cc3)c(C(N)=O)c3[nH]ncc23)C1	BTK (Homo sapiens, UniProt Q06187)	≤	10

----------
The entries that follow carry IC50 values tested on BTK (Homo sapiens, UniProt Q06187), drawn from several published reports.
Mark TRUE only for IC50 values smaller than 10 nM; exact matches and larger values are FALSE.

Compound	Group label
O=C(c1ccc(Oc2ccccc2)cc1Cl)c1c[nH]c2ncc3c(c12)N[C@@]1(CC[C@H](CO)OC1)C(=O)N3 (single isomer, unassigned)	TRUE
CCOC[C@]1(C)Nc2c(cnc3[nH]cc(C(=O)c4ccc(Oc5cc(C)ccn5)cc4Cl)c23)NC1=O	FALSE
O=C(c1ccc(Oc2ccccc2)cc1Cl)c1c[nH]c2nccc(N[C@H]3CC[C@H](O)CC3)c12	FALSE
C=CC(=O)N1CCC[C@@H](n2c(=O)n(-c3ccc(CNC(=O)c4cc(F)ccc4OC)cc3)c3c(N)nccc32)C1	TRUE
[2H]C([2H])([2H])OC[C@]1(C)Nc2c(cnc3[nH]cc(C(=O)c4ccc(Oc5ccccc5)cc4Cl)c23)NC1=O (single isomer, unassigned)	TRUE
O=C(c1ccc(Oc2ccccc2)cc1Cl)c1c[nH]c2nccc(NC3CCNCC3)c12	TRUE
